The measured values listed here are drawn from the supplement of paper PMC10126150.

System: ATP;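 note: ATP exposure 15 min at 22 °C before imaging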
Experiment: switch fluorescence ratio, 500 uM ATP over buffer (Cy3 cluster intensity, sum of 5 cycles each) (fold (ratio)); higher = stronger signal-on switching upon ATP binding; sequences stand for … in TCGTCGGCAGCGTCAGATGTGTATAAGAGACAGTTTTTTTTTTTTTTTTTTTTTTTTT…TC
Details: aptamer strand: ATP DNA aptamer (quencher-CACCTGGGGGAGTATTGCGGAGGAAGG + anchor), 100 nM annealed; ATP concentration: 500 uM
Some sequences, each annotated with its measured switch fluorescence ratio.
QUANTITY_KIND: switch fluorescence ratio

# PRIMARY_SEQUENCE, TARGET_OR_SYSTEM, NUMERIC_RESULT
measured = [
    ("GGTCTGGGGA", "ATP", 1.02),
    ("TCGGTGAGGT", "ATP", 0.999),
    ("TAATAGTAGT", "ATP", 0.997),
    ("CTTCGGACGG", "ATP", 1.24),
    ("ATAAGCCCCG", "ATP", 0.993),
    ("AGTGTTGGG", "ATP", 0.977),
    ("TTTATACTTT", "ATP", 1.06),
    ("ATGGGAGTAG", "ATP", 0.956),
    ("GATCTTAGGG", "ATP", 0.989),
    ("GCTTGGATCG", "ATP", 0.993),
    ("ATGAGGGGTT", "ATP", 0.995),
    ("ATTTTTATGA", "ATP", 0.967),
    ("GTTTAGATGT", "ATP", 0.994),
    ("ACGTCGTAGG", "ATP", 1.05),
    ("ATCAAGGACG", "ATP", 1.02),
    ("TCATAAACTT", "ATP", 1.09),
    ("GACAGGTTAG", "ATP", 0.981),
    ("AGGCCTTGTT", "ATP", 0.974),
    ("TCATTTTGAA", "ATP", 1.01),
    ("CTATGTGATT", "ATP", 1.02),
    ("TAAAACGATC", "ATP", 0.966),
    ("TTTGGGATTG", "ATP", 1.07),
    ("TATGCCGGGG", "ATP", 0.988),
    ("TAACAATATT", "ATP", 0.995),
    ("TTGTTGGTTG", "ATP", 0.975),
    ("CAATGTGAAA", "ATP", 1.01),
]
